B1: tRNA (parent)
chain: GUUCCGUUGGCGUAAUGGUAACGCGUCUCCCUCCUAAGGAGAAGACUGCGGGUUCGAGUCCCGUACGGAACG

Variants of: B1
Test: yeast fitness, log relative to wild type (ln ratio); higher = fitter; tRNA-Arg(CCU), competitive growth, 37 C, 1 M NaCl
Quick reference: yeast fitness (ln) of the listed items.
Please state the value as a number alone, without comment.

Q. Reported yeast fitness (ln) for U2G G6U C27U C66A A70U : what is it?
A. -0.0251

Q. Reported yeast fitness (ln) for C27U A43C C66A A69G A70U C71U : what is it?
A. -0.513

Q. Reported yeast fitness (ln) for G1A C46U C66A A69G A70G C71U : what is it?
A. -0.178

Q. Reported yeast fitness (ln) for G6U A70U C71U : what is it?
A. -0.14

Q. Reported yeast fitness (ln) for U2G G6U A43C C66A A70U : what is it?
A. -0.0132

Q. Reported yeast fitness (ln) for G6U A43C C66U A70U : what is it?
A. -0.301

Q. Reported yeast fitness (ln) for G1A U2G C46U C66U A69G A70U C71U : what is it?
A. -0.321

Q. Reported yeast fitness (ln) for G1A G6A A43C C46U C66U A70U C71U : what is it?
A. -0.331

Q. Reported yeast fitness (ln) for G1A U2C G6U C27U A43C C46U C66U A69G A70U C71U : what is it?
A. -0.398

Q. Reported yeast fitness (ln) for U2G G6A A43C C46U C66A C71U : what is it?
A. -0.153

Q. Reported yeast fitness (ln) for U2G G6U C27U A43C A69G A70G : what is it?
A. -0.322

Q. Reported yeast fitness (ln) for C27U A43C C66A C71U : what is it?
A. -0.275

Q. Reported yeast fitness (ln) for G1A U2G C66U A69G A70U : what is it?
A. -0.197

Q. Reported yeast fitness (ln) for G1A U2G G6A C27U A70G : what is it?
A. -0.339

Q. Reported yeast fitness (ln) for G1A G6U C27U C46U C66A A69G A70G C71U : what is it?
A. -0.58

Q. Reported yeast fitness (ln) for U2C A43C C66U A69G A70G : what is it?
A. -0.169

Q. Reported yeast fitness (ln) for G1A C27U : what is it?
A. -0.105

Q. Reported yeast fitness (ln) for U2C G6A C27U A43C C66U A69G A70G C71U : what is it?
A. -0.293

Q. Reported yeast fitness (ln) for U2C C27U A43C C46U C66A A69G A70U C71U : what is it?
A. -0.472
